# method-notes: recombinant barcode read abundance after kanamycin selection (control-corrected) (log10(CPM+1)); higher = more efficient recombination; sequences stand for … in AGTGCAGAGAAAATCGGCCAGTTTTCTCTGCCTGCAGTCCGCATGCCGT…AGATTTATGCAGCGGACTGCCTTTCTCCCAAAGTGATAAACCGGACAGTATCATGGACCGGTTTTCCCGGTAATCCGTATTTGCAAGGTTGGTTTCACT; site = the 11-nt target;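 note: IS621 recombinase and bridge RNA in Escherichia coli cells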
Assign classes using reported recombinant barcode read abundance (log10) values and the ranges low value = under 0.1, medium value = from 0.1 up to 0.4, high value = 0.4 and over, please.

Previously resolved entries follow.
{"sequence-chain": "TGTTAGTCTTGGGTTCTAACCTGTTGCCG (site TGTTAGACTAG)", "assigned-class": "low value"}
{"sequence-chain": "TCTTATACTTGGGTTCTAACCTGTTGCGT (site TCTTATACTAT)", "assigned-class": "low value"}
{"sequence-chain": "TCGCAAGCTTGGGTTCTAACCTGTTGCCT (site TCGCAAGCTAG)", "assigned-class": "high value"}

Problem: For this sequence, which bin applies? CACTAGACTTGGGTTCTAACCTGTTGCCG (site CACTAGACTCG)
Result: high value

Problem: For this sequence, which bin applies? GGTCCACCTTGGGTTCTAACCTGTTGCCT (site AGTCCACCTAG)
Result: medium value

Problem: For this sequence, which bin applies? CTAGGCCCTTGGGTTCTAACCTGTTGCAT (site CTAGGCCCTAG)
Result: medium value

Problem: For this sequence, which bin applies? CTTAAATCTTGGGTTCTAACCTGTTGCCT (site CTTGAATCTAG)
Result: medium value

Problem: For this sequence, which bin applies? GAAATGGCTTGGGTTCTAACCTGTTGCCT (site GAAAAGGCTAG)
Result: low value

Problem: For this sequence, which bin applies? TGTGTCCCTTGGGTTCTAACCTGTTGCCT (site TGAGTCCCTAG)
Result: medium value

Problem: For this sequence, which bin applies? TCCCATTCTTGGGTTCTAACCTGTTGCCT (site TCCCATACTAG)
Result: medium value

Problem: For this sequence, which bin applies? CATCCGCCTTGGGTTCTAACCTGTTGCCT (site CATCCGCCTAG)
Result: high value

Problem: For this sequence, which bin applies? TGTGATCCTTGGGTTCTAACCTGTTGCAT (site TGAGATTCTAT)
Result: low value

Problem: For this sequence, which bin applies? CAACCACCTTGGGTTCTAACCTGTTGCTT (site CAAGCACCTAA)
Result: low value

Problem: For this sequence, which bin applies? CATTCCACTTGGGTTCTAACCTGTTGCCT (site TCGCGTGCTCC)
Result: low value

Problem: For this sequence, which bin applies? TCCAATCCTTGGGTTCTAACCTGTTGCAG (site TCCAATCCTCT)
Result: medium value

Problem: For this sequence, which bin applies? AGGCGTCCTTGGGTTCTAACCTGTTGCCA (site AGGCGTCCTCG)
Result: low value

Problem: For this sequence, which bin applies? TACTATGCTTGGGTTCTAACCTGTTGCCT (site TACTATCCTAG)
Result: medium value

Problem: For this sequence, which bin applies? CTATTAGCTTGGGTTCTAACCTGTTGCCG (site CTATTAGCTCG)
Result: high value

Problem: For this sequence, which bin applies? TAAGTACCTTGGGTTCTAACCTGTTGCCT (site CAAGTACCTAG)
Result: high value

Problem: For this sequence, which bin applies? GTAGCAGCTTGGGTTCTAACCTGTTGCTC (site GTAGCAGCTGA)
Result: high value

Where do the numbers come from? From the supplement of paper PMC11208160.
